molecular target: Glutamate carboxypeptidase 2 (Homo sapiens); assay: Binding affinity to PSMA in human LNCaP cells assessed as cell surface binding in presence of 100% calf serum; assay type: cell-based
Sequence (Q04609 whole entry, looked up): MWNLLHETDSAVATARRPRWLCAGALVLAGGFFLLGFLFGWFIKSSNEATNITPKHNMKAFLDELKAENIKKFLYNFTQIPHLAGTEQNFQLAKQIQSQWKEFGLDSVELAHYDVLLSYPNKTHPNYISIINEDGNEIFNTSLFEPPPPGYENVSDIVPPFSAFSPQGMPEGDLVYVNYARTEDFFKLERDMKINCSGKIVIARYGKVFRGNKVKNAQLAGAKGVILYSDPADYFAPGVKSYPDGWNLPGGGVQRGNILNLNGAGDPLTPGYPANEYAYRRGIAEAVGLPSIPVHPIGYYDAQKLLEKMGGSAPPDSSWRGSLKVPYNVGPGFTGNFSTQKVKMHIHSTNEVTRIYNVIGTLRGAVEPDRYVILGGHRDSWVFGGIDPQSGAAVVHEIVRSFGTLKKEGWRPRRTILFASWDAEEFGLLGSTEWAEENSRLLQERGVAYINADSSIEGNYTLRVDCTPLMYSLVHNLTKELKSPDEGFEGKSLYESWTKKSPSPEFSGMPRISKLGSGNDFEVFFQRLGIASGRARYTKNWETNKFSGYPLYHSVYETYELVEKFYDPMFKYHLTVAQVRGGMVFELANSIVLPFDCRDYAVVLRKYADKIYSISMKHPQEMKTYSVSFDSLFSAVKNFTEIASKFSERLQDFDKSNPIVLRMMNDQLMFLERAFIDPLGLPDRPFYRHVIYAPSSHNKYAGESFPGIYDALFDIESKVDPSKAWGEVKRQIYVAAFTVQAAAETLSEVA
Calls of active or inactive are those of the source. The rule behind the calls is not given here.
observation_type: Activity

- compound: "CC(C)(C)OC(=O)NC12CC3(CCC(=O)N[C@@H](CCP(=O)(O)CC(CCC(=O)O)C(=O)O)C(=O)O)CC(CCC(=O)N[C@@H](CCP(=O)(O)CC(CCC(=O)O)C(=O)O)C(=O)O)(CC(CCC(=O)N[C@@H](CCP(=O)(O)CC(CCC(=O)O)C(=O)O)C(=O)O)(C3)C1)C2 (stereo not given in full)"
  Activity: "0.9 nM"
- compound: "CC1(C)C(/C=C/C2=C(Oc3ccc(S(=O)(=O)O)cc3)C(=C/C=C3/N(CCCCS(=O)(=O)O)c4ccc(S(=O)(=O)O)cc4C3(C)C)/CCC2)=[N+](CCCCCC(=O)NCCCCCC(=O)NC23CC4(CCC=O)CC(CCC=O)(CC(CCC(=O)N[C@@H](CCP(=O)(O)CC(CCC(=O)O)C(=O)O)C(=O)O)(C4)C2)C3)c2ccc(S(=O)(=O)[O-])cc21 (stereo not given in full)"
  Activity: "inactive"
- compound: "CC1(C)C(/C=C/C2=C(Oc3ccc(S(=O)(=O)O)cc3)C(=C/C=C3/N(CCCCS(=O)(=O)O)c4ccc(S(=O)(=O)O)cc4C3(C)C)/CCC2)=[N+](CCCCCC(=O)NCCCCCC(=O)NC23CC4(CCC(=O)N[C@@H](CCP(=O)(O)CC(CCC(=O)O)C(=O)O)C(=O)O)CC(CCC(=O)N[C@@H](CCP(=O)(O)CC(CCC(=O)O)C(=O)O)C(=O)O)(CC(CCC(=O)N[C@@H](CCP(=O)(O)CC(CCC(=O)O)C(=O)O)C(=O)O)(C4)C2)C3)c2ccc(S(=O)(=O)[O-])cc21 (stereo not given in full)"
  Activity: "0.4 nM"
- compound: "CC1(C)C(/C=C/C2=C(Oc3ccc(S(=O)(=O)O)cc3)C(=C/C=C3/N(CCCCS(=O)(=O)O)c4ccc(S(=O)(=O)O)cc4C3(C)C)/CCC2)=[N+](CCCCCC(=O)N[C@@H](CCP(=O)(O)CC(CCC(=O)O)C(=O)O)C(=O)O)c2ccc(S(=O)(=O)[O-])cc21 (stereo not given in full)"
  Activity: "inactive"

Now look at this one.
Give me measured Activity, please, for this compound: N[C@@H](CCP(=O)(O)CC(CCC(=O)O)C(=O)O)C(=O)O (stereo not given in full)
inactive

----------
Quick reference for Kd among some compounds
molecular target: Glutamate carboxypeptidase 2 (Homo sapiens, UniProt Q04609); assay: Binding affinity to PSMA in human LNCaP cells assessed as cell surface binding in Tris-buffered saline buffer; assay type: cell-based
Sequence (Q04609 whole entry): as the sequence (Q04609 whole entry, looked up) above
Numeric only. Scale: nM

The following compounds have reported results that may help.
- compound: "CC1(C)C(/C=C/C2=C(Oc3ccc(S(=O)(=O)O)cc3)C(=C/C=C3/N(CCCCS(=O)(=O)O)c4ccc(S(=O)(=O)O)cc4C3(C)C)/CCC2)=[N+](CCCCCC(=O)NCCCCCC(=O)NC23CC4(CCC(=O)N[C@@H](CCP(=O)(O)CC(CCC(=O)O)C(=O)O)C(=O)O)CC(CCC(=O)N[C@@H](CCP(=O)(O)CC(CCC(=O)O)C(=O)O)C(=O)O)(CC(CCC(=O)N[C@@H](CCP(=O)(O)CC(CCC(=O)O)C(=O)O)C(=O)O)(C4)C2)C3)c2ccc(S(=O)(=O)[O-])cc21 (stereo partly drawn)"
  units_symbol: "nM"
  observed: 0.5
- compound: "CC1(C)C(/C=C/C2=C(Oc3ccc(S(=O)(=O)[O-])cc3)C(=C/C=C3/Nc4ccccc4C3(C)C)/CCC2)=[N+](CCCCCC(=O)NC23CC4(CCC(=O)N[C@@H](CCP(=O)(O)CC(CCC(=O)O)C(=O)O)C(=O)O)CC(CCC(=O)N[C@@H](CCP(=O)(O)CC(CCC(=O)O)C(=O)O)C(=O)O)(CC(CCC(=O)N[C@@H](CCP(=O)(O)CC(CCC(=O)O)C(=O)O)C(=O)O)(C4)C2)C3)c2ccccc21 (stereo partly drawn)"
  units_symbol: "nM"
  observed: 0.2

Give me measured Kd, please, for this compound: CC1(C)C(C=CC2=C(Oc3ccc(S(=O)(=O)O)cc3)/C(=C/C=C3/N(CCCCCC(=O)N[C@@H](CCP(=O)(O)CC(CCC(=O)O)C(=O)O)C(=O)O)c4ccc(S(=O)(=O)[O-])cc4C3(C)C)CCC2)=[N+](CCCCS(=O)(=O)O)c2ccc(S(=O)(=O)O)cc21 (stereo partly drawn)
3.6
